TEST SUMMARY: Absolute bioavailability in Sprague-Dawley rat at 15 mg/kg, po
Type: ADME, organism-based
SETUP CONDITIONS: in vivo
QUANTITY: bioavailability (%)
Value expressed in %; do not type the unit.

The molecule listed as O=c1c2ccccc2sc2cc(OCC(O)CCl)cc(O)c12 (stereo unspecified) shows bioavailability equal to 0.6

* * *

TEST SUMMARY: AUC (0 to t) in Sprague-Dawley rat at 5 mg/kg, iv
Type: ADME, organism-based
Design: dose 5 mg/kg, route intravenous
SETUP CONDITIONS: plasma
QUANTITY: AUC(0-t) (ng·h/mL)
Give just the numeric value; ng·h/mL need not be written.

Noted for O=c1c2ccccc2sc2cc(OCC(O)CCl)cc(O)c12 (stereo unspecified) : its AUC(0-t) reads 1250

* * *

TGT: P-glycoprotein (ABCB1) (Homo sapiens, UniProt P08183)
Sequence (P08183 whole entry): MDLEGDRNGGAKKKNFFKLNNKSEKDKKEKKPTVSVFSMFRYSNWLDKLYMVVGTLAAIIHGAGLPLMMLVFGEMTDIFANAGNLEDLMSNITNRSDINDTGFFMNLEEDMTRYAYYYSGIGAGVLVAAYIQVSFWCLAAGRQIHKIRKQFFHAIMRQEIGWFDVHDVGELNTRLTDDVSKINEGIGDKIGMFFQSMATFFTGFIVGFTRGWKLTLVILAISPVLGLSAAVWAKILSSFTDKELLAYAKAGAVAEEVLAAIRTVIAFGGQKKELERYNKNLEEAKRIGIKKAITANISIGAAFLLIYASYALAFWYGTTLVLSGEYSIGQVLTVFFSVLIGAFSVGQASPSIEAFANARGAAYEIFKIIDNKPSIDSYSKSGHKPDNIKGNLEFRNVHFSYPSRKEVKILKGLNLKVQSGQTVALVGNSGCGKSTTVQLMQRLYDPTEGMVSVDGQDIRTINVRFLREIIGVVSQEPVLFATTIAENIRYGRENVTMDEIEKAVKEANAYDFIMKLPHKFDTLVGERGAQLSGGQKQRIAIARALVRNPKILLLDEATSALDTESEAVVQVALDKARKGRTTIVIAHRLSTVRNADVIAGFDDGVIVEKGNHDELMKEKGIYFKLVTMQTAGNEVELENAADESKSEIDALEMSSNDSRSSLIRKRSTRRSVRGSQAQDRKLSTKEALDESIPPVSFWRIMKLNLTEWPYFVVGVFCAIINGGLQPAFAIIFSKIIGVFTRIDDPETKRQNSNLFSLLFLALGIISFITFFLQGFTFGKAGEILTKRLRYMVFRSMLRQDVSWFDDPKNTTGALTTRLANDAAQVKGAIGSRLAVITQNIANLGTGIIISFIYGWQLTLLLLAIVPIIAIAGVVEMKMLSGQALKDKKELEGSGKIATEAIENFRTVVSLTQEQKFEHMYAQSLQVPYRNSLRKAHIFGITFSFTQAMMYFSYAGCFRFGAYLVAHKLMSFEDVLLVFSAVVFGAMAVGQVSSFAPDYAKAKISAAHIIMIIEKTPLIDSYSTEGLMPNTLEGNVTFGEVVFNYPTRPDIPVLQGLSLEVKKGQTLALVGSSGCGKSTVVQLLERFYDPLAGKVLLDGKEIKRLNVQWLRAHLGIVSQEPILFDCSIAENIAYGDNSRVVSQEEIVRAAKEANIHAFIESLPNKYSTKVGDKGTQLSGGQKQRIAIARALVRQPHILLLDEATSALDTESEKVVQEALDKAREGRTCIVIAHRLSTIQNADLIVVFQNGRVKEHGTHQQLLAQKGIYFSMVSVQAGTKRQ
TEST SUMMARY: Inhibition of P-glycoprotein in human MCF7/ADR cells assessed as reduction in [3H]-DNM efflux ratio at 100 uM after 1 hr relative untreated control
Type: cell-based, NCI/ADR-RES
SETUP CONDITIONS: MCF7/ADR cells (NCI/ADR-RES), probe [3H]-DNM, read-out: Activity
QUANTITY: inhibition at 1 h, 100 µM (%)
Please state the figure in %; there is no need to write the unit.

Form field inhibition at 1 h, 100 µM, entry O=c1c2ccccc2sc2cc(OCC(O)CCl)cc(O)c12 (stereo unspecified) : 70.4

* * *

TEST SUMMARY: Cmax in Sprague-Dawley rat at 15 mg/kg, po
Assay type: ADME, organism-based
Parameters: dose 15 mg/kg, route oral
SETUP CONDITIONS: in vivo
QUANTITY: Cmax (ng/mL)
Please give a number only; it is taken to be in ng/mL.

Form: compound = O=c1c2ccccc2sc2cc(OCC(O)CCl)cc(O)c12 (stereo unspecified) ; Cmax = 49

* * *

TEST SUMMARY: Elimination rate constant in Sprague-Dawley rat at 5 mg/kg, iv
Type: ADME, organism-based
Parameters: dose 5 mg/kg, route intravenous
SETUP CONDITIONS: in vivo
QUANTITY: k el (s⁻¹)
Only the number, expressed in s⁻¹, is required.

The molecule O=c1c2ccccc2sc2cc(OCC(O)CCl)cc(O)c12 (stereo unspecified) showed k el equal to 0.000569

* * *

TEST SUMMARY: Elimination half life in Sprague-Dawley rat at 15 mg/kg, po
Assay type: ADME, organism-based
Parameters: dose 15 mg/kg, route oral
SETUP CONDITIONS: in vivo, read-out: beta t1/2 (converted)
QUANTITY: half-life (min)
Numbers only here, please. The scale is min.

half-life for O=c1c2ccccc2sc2cc(OCC(O)CCl)cc(O)c12 (stereo unspecified) is 23.4
